Each entry below carries its reported IC50.
- Assay system: LSD-1 enzyme (Homo sapiens (Human))
- Experiment notes: LANCE LSD1/KDM1A demethylase assay (LSD1 histone demethylase biochemical assay)
- Run conditions: 1 nM LSD-1 enzyme, 1 hour preincubation at 25° C., Biotin-labeled Histone H3 peptide substrate; read-out: IC50

{"Compound": "CN1CCC[C@@H](COc2nc(-c3ccc(C#N)cc3)c(-c3ccc4c(c3)CC(O)C4)n3ccnc23)C1 (single isomer, unassigned) [78 (peak 2)]", "Assay system": "LSD-1 enzyme (Homo sapiens (Human))", "IC50": "< 50 nM"}
{"Compound": "CN1CCC[C@@H](COc2nc(-c3ccc(C#N)cc3)c(-c3ccc4c(c3)CC(O)C4)n3ccnc23)C1 (single isomer, unassigned) [78 (peak 1)]", "Assay system": "LSD-1 enzyme (Homo sapiens (Human))", "IC50": "< 50 nM"}
